Kindly supply the reported MIC values for the records listed here.
test system: C. neoformans H99; test: Checkerboard assay; format: cell-based, Cryptococcus neoformans; conditions: Cryptococcus neoformans, H99, 48 h

Query block: Entry Nc1nc(=O)[nH]cc1F [5-FC, 5-fluorocytosine, reference compound] : reported MIC = ?
Result block: 8.1 µg/mL

Query block: Please do the same for O=C(Nc1ccc(F)cc1)c1nnsc1S(=O)(=O)c1ccc(Cl)cc1 [6G-318S] as well.
Result block: 1 µg/mL

Query block: Please do the same for C[C@@H](c1ncncc1F)[C@](O)(Cn1cncn1)c1ccc(F)cc1F [Vor, Voriconazole, reference compound] as well.
Result block: 0.044 µg/mL

Query block: Please do the same for CCC(C)n1ncn(-c2ccc(N3CCN(c4ccc(OCC5COC(Cn6cncn6)(c6ccc(Cl)cc6Cl)O5)cc4)CC3)cc2)c1=O (stereo not shown) [IZ, itraconazole, reference compound] as well.
Result block: 0.176 µg/mL
